- tested.system: Histone-lysine N-methyltransferase NSD2 (Homo sapiens)
- Sequence (O96028 whole entry): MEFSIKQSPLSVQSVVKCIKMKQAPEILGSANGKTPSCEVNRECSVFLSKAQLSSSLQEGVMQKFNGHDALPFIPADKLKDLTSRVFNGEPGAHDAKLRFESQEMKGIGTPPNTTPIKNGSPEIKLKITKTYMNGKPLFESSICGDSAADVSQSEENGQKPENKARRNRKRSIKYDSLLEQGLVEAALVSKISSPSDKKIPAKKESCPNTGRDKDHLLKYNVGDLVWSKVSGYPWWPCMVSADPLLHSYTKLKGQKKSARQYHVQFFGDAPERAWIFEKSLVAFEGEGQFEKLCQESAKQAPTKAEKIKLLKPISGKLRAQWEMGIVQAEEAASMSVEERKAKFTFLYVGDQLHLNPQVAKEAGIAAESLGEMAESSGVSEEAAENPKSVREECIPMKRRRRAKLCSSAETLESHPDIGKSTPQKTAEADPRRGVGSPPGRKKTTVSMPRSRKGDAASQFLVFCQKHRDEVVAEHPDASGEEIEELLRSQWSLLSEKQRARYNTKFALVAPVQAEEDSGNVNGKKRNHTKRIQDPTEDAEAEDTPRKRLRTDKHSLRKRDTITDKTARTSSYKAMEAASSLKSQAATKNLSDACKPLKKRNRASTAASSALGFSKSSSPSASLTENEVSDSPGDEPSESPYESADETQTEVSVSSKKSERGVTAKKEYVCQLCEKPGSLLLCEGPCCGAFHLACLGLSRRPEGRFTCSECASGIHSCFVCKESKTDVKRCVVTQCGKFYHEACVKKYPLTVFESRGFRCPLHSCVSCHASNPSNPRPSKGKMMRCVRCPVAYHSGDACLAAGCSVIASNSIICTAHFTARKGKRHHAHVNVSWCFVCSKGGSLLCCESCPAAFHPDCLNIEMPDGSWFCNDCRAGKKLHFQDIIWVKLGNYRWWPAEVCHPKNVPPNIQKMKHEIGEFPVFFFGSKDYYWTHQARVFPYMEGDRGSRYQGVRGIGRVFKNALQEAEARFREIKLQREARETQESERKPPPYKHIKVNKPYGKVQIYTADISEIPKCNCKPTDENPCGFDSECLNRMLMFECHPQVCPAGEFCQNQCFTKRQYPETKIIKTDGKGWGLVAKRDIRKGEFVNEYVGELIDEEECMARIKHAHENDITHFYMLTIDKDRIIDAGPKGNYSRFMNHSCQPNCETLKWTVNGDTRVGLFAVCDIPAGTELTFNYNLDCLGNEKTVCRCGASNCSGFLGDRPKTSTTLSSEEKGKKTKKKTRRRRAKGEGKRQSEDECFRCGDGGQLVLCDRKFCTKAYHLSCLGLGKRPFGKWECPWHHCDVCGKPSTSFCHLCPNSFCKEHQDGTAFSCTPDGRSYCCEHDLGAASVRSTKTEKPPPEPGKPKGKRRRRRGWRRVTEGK
- Assay type: biochemical
Activity calls are given as the source filed them.
One label from this list, please: active, inactive

>  <compound.smiles>
CCOc1ccc(NC(S)=Nc2ccc3nsnc3c2)cc1

>  <label>
active

$$$$

[ask] Which result was noted for this molecule in the test: N#C/C(=C/c1ccc(O)c(O)c1)C(=O)NCc1ccc(Cl)cc1
[reply] active

[ask] Moving on to CCN(CC)CCCN(Cc1cc2ccc(C)c(C)c2nc1O)C(=O)NC1CCCCC1
[reply] inactive

[ask] Another molecule to look at: O=C(NC1(O)C(=O)c2ccccc2C1=O)c1ccccc1
[reply] active

[ask] Cc1ccc(C)c(S(=O)(=O)/N=C2\C=C(NS(=O)(=O)c3ccccc3)C(=O)c3ccccc32)c1 , same question.
[reply] inactive

====

- protocol.details: cytotoxicity toward NIH3T3 fibroblasts, dose response, counter-screen, cell-based, ATP luminescence, mouse fibroblasts (AID 2010);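 further: cells exposed to compound for about 90 hours before reading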
- Assay type: functional
- run.parameters: NIH3T3
Calls of active or inactive are those of the source.
# EC50 values compiled below

>  <compound>
CCCCCCCCCCCCCCCCn1cc[n+](C)c1

>  <EC50>
8.99 µM (active)

$$$$
>  <compound>
CN(C)CCN(C(=O)c1ccc2c(c1)OCCO2)c1nc2ccc(Cl)cc2s1

>  <EC50>
> 60 µM (not active)

$$$$

[ask] EC50 for COc1ccccc1CN1CCCC(CNC(=O)c2cccc3ccccc23)C1 (configuration not stated) ?
[reply] > 60 µM (not active)

[ask] What about this compound? Cc1ccc(-c2cn3c([n+]2-c2ccccc2)SCC3)cc1
[reply] > 60 µM (not active)

[ask] # iterate: CCCSc1nsc(NC(=O)CCC)n1
[reply] > 60 µM (not active)

[ask] Same question, Cc1ccc(OCC(=O)Nc2cc(S(=O)(=O)N3CCCCC3)ccc2N2CCN(C)CC2)c(C)c1 this time
[reply] > 60 µM (not active)

[ask] Please give the result for O=C(/N=C1/N=C2C=CC(Br)=CN2Cc2ccccc21)c1ccc([N+](=O)[O-])cc1[N+](=O)[O-] too.
[reply] > 60 µM (not active)

[ask] Same for CN1/C(=C\P(=O)(N(C)C)N(C)C)C(C)(C)c2ccccc21
[reply] > 60 µM (not active)

[ask] Moving on to the next compound: CCOc1ccc(C(=O)NC(=S)Nc2ccccc2N2CCC(C)CC2)cc1[N+](=O)[O-]
[reply] > 60 µM (not active)

[ask] Try this compound too: Cc1ccsc1C(=O)C1CCCN(Cc2cnn(C(C)C)c2)C1 (configuration not stated)
[reply] > 60 µM (inconclusive)

[ask] Try the compound Cc1ccc(N2C(=O)CC(Sc3nc4ccccc4o3)C2=O)cc1Cl (configuration not stated)
[reply] 8.27 µM (active)

[ask] Now the same for Cc1ccc2c(c1)S/C(=C/c1ccc[n+](CCO)c1)N2C
[reply] > 60 µM (not active)

====

- tested.system: Nucleotide-binding oligomerization domain-containing protein 1 (Homo sapiens, UniProt Q9Y239)
- Sequence (Q9Y239 whole entry, the tested form may be a part): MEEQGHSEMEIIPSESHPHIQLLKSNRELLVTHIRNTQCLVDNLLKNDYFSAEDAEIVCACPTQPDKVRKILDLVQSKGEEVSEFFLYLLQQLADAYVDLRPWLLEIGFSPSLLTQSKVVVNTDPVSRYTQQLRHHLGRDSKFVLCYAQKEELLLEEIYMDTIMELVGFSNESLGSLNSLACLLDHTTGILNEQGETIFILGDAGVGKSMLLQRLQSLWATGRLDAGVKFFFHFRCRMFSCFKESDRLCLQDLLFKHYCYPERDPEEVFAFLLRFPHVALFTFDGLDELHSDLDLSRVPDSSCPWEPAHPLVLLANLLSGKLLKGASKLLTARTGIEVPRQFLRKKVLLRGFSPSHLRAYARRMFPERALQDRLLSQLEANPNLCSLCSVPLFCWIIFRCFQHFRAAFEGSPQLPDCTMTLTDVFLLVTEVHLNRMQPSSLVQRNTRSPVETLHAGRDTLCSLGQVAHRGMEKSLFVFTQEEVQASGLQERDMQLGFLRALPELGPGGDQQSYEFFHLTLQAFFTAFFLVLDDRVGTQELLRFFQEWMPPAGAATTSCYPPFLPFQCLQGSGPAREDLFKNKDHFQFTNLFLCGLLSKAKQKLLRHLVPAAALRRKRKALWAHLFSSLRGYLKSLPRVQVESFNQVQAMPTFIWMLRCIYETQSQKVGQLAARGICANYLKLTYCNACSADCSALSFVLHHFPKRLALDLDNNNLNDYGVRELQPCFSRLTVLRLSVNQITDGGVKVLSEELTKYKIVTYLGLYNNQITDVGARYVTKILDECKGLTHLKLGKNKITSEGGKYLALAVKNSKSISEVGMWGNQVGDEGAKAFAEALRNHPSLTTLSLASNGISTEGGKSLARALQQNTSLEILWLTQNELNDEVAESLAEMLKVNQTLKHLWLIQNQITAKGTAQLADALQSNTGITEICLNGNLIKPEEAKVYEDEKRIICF
- protocol.details: NOD1 signaling inhibitors, SAR follow-up, revised (AID 2333)
- Format: functional
Calls of active or inactive are those of the source.
I would appreciate it if you answered using one of these outcomes: active, inactive

Some solved cases for reference:
>  <compound>
Cc1nc(CN(C)C(=O)c2cc(COc3ccc4ncccc4c3)on2)cs1

>  <label>
inactive

$$$$
>  <compound>
CC1CCc2c(sc(NC(=O)c3cccs3)c2C(=O)O)C1 (centres undefined)

>  <label>
inactive

$$$$

[ask] # lookup: test call for COc1ccc(CNc2ncnc3sccc23)cc1OC
[reply] active

[ask] Also need CN(Cc1ccc(F)cc1)S(=O)(=O)c1nnc(NC(=O)c2ccccc2)s1 , thanks.
[reply] active
